What normalized growth was measured for each of the following?
assay: chemical genetic growth profiling, strain panel (AID 1159580);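 also: tested at 20 µM; growth read once vehicle control cultures reached saturation at 30 °C; 1 = growth at the plate median or of vehicle wells; lower values mean less growth of the strain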; conditions: S. cerevisiae deletion strains, growth OD, locus YLR371W, strain rom2, active compounds read low
Among all 5,500 compounds or so, about 2,000 (36%) were called active. Another 18% or so got no clear call; they are omitted. The list shows a part of the results.
Give bare numbers.

| Compound | normalized growth |
| --- | --- |
| CNCCC=C1c2ccccc2CCc2ccccc21 | 1.02 |
| O=C1CC[C@]23C=CC(=O)NCCCCNCCCNC(=O)/C=C/c4ccc(c2c4)O[C@@H]3C1 | 1 |

Field: normalized growth. Fill in for each record below.
1. CN1CCc2c(c3ccccc3n2Cc2ccccc2)C1
2. CC1(C)O[C@@H]2CC3C4CCC5=CC(=O)C=C[C@]5(C)[C@@]4(F)[C@@H](O)C[C@]3(C)[C@]2(C(=O)CO)O1 (stereo partly drawn)
3. O=c1c2ccccc2[se]n1-c1ccccc1
4. CC[N+]1(C)CCCC(OC(=O)C(O)(c2ccccc2)c2ccccc2)C1 (stereo not drawn)

[out]
1: 1.01; 2: 0.995; 3: 0.0624; 4: 1.01
